Measured values drawn from PubChem BioAssay (NCI) for this set.

- Tested on: HCT-15 colon
- EXPERIMENTAL_DETAILS: NCI tumour cell line growth inhibition, 48 h
Reported TGI values for a set of compounds

C=CCN1C(=O)/C(=C/c2ccc(OC)cc2)N=C1SC/C=C/C :: > 100 µM
O=C1Nc2ccccc2/C1=C/C(=O)c1coc2c1C(=O)c1ccccc1C2=O :: > 100 µM
COC(=O)[C@@H]1CN(C(C)=O)C(=O)N1 :: > 100 µM
COc1ccc(C(=O)OC2C(OC3C(O)COC(O[C@H]4C[C@H]5[C@@H]6CC=C7C[C@@H](O)CC[C@]7(C)[C@H]6CC[C@]5(C)[C@H]4[C@H](C)C(=O)CCC(C)C)C3OC(N)=O)OCC(O)C2O)cc1 (stereo partly specified) :: 5.44 µM
CC1C2(C)OC(=N)C(C#N)(C(c3ccccc3)O2)C1(C#N)C#N (stereo unspecified) :: 22.9 µM

Next:
input: Item: C=CCN1C(=O)/C(=C/c2ccco2)N=C1SC/C=C/C Test system: HCT-15 colon Read-out: TGI Value: ?
output: > 100 µM

* * *

- Tested on: KM20L2 colon
- EXPERIMENTAL_DETAILS: NCI tumour cell line growth inhibition, 48 h
Reported TGI values for a set of compounds

input: Requested field: TGI. Item: c1ccc2c(c1)cc(C1NCCc3[nH]cnc31)c1ccccc12 (configuration not stated)
output: > 100 µM

* * *

- Tested on: MALME-3M melanoma
- EXPERIMENTAL_DETAILS: NCI tumour cell line growth inhibition, 48 h
RECORDED_METRIC: TGI

See these solved cases before continuing.
COC1=C(OC)C(=O)C(Cc2c(Cl)nc3sc(C)cn23)=C(C)C1=O :: 26.5 µM
CCCCCCCCCCCCCCCCCCOc1ccccc1CC(=O)OCC[N+]1(C)CCCCC1 :: 4.86 µM
C1=NCCN2CCN(CCN=Cc3ccc(cc3)OCc3cccc(n3)COc3ccc1cc3)CC2 :: > 50 µM
C=C(C)C(=O)Nc1ccc(NC(C)C)cc1 :: > 100 µM
O=c1c2c(oc3ccccc13)-c1ccccc1OC2 :: > 100 µM

input: Item: CCOC(CN(C)C(=O)Nc1cccc2ccccc12)OCC Test system: MALME-3M melanoma Read-out: TGI Value: ?
output: > 10 µM

input: Item: FC(F)(F)c1ccc(Nc2nc(-c3c(C(F)(F)F)nc4ccccn34)cs2)cc1 Test system: MALME-3M melanoma Read-out: TGI Value: ?
output: 4.63 µM

input: Item: CN(C)CCCSc1nc2ccccc2[nH]1 Test system: MALME-3M melanoma Read-out: TGI Value: ?
output: > 100 µM

* * *

- System: KM12 colon
- EXPERIMENTAL_DETAILS: NCI tumour cell line growth inhibition, 48 h
Outcome label depends on TGI relative to 5 µM: at/above gives criterion met, below gives criterion not met.

input: Reported TGI at or above 5 µM? CC(=O)NC1C(OCc2ccccc2)OC(CO)C(O)C1OC(C)C(=O)NC(C(=O)N[C@@H](CCC(=O)NCCNCCNc1c2ccccc2nc2cccc([N+](=O)[O-])c12)C(N)=O)C(C)C (some centres undefined)
output: criterion met

* * *

- Test system: HL-60(TB) leukemia
- EXPERIMENTAL_DETAILS: NCI tumour cell line growth inhibition, 48 h
Reported TGI values for a set of compounds
Please give a number only; it is taken to be in µM.

See these solved cases before continuing.
O=C1c2ccccc2C(O)(O)C1(O)C1(O)C(=O)c2ccccc2C1(O)O (stereo unspecified) :: 53.2
CC(C)(C)OC(=O)N1CCN(CCn2cc(C(F)(F)F)c3c(Cl)ncnc32)CC1 :: 6.46
FC(F)(F)c1ccc(Nc2nc(-c3c(C(F)(F)F)nc4ccccn34)cs2)cc1 :: 2.25
Cn1c2ccccc2c2c(-c3ccccc3)cc3c(c21)C(=O)C=CC3=O :: 1.1

Next:
input: Requested field: TGI. Item: CCCCCCCCCCCCCCCCCCNc1ccn(C2OC(COP(=O)(O)OCC3OC(n4cc(F)c(=O)[nH]c4=O)CC3O)C(O)C2O)c(=O)n1 (stereo unspecified)
output: 22.1

* * *

- System: RXF 393 renal
- EXPERIMENTAL_DETAILS: NCI tumour cell line growth inhibition, 48 h
Reported TGI values for a set of molecules
Please give a number only; it is taken to be in µM.

input: Requested field: TGI. Item: CC1C2(C)OC(=N)C(C#N)(C(c3ccccc3)O2)C1(C#N)C#N (stereo not given)
output: 87.5

* * *

- Tested on: HCC-2998 colon
- EXPERIMENTAL_DETAILS: NCI tumour cell line growth inhibition, 48 h
RECORDED_METRIC: GI50

See these solved cases before continuing.
COc1cc(C[C@H]2c3cc(OC)c(OC)cc3CCN2C)c(Oc2cc3c(cc2OC)-c2c(OC)c(OC)cc4c2[C@H](C3)N(C)CC4)cc1OC :: 4.9 µM
c1ccc2[nH]c(-c3ccc(-c4nccc5c4[nH]c4ccccc45)cc3)nc2c1 :: 3.96 µM
C=C1CCC2C3(C)COC(c4ccc(N(C)C)cc4)OC3CCC2(C)C1C/C=C1/C(=O)OCC1O (stereo not given) :: 7.69 µM
CC(C)(C)c1ccc(Oc2nccc(-c3c(-c4ccc(F)cc4)ncn3C3CCNCC3)n2)cc1 :: 1.38 µM

Next:
input: Requested field: GI50. Item: COc1ccc2nc3cccc([N+](=O)[O-])c3c(NCCCCCC(=O)O)c2c1
output: 1.18 µM

* * *

- Test system: SN12C renal
- EXPERIMENTAL_DETAILS: NCI tumour cell line growth inhibition, 48 h; in the data active = GI50 below about 0.43 µM; inactive = the rest
Choose the fitting class; nothing outside TRUE (active), FALSE (inactive) is accepted.

Before answering, review these 5 worked examples.
FC(F)(F)c1ccc(Nc2nc(-c3c(C(F)(F)F)nc4ccccn34)cs2)cc1 :: TRUE
C#Cc1c(F)ccc2cc(O)cc(-c3ncc4c(N5CC6CCC(C5)N6)nc(OC[C@@]56CCCN5C[C@H](F)C6)nc4c3F)c12 :: FALSE
C=C1C(=O)O[C@H]2[C@H]1CC/C(COC(=O)NCc1cn(C)c3ccccc13)=C\CC[C@@]1(C)O[C@@H]21 :: FALSE
COc1ccc(/C(COc2ccc3c(=O)cc(-c4ccccc4)oc3c2)=N\O)cc1 :: FALSE
COc1ccc(C(=O)c2cc(OC)c(OC)c(OC)c2)cc1OC(=O)CCl :: TRUE

input: // outcome(item) with item = COc1cc([N+](=O)[O-])c(OC)cc1-c1nc2sc(Cl)cn2c1/C(N)=N/C(=N)N
output: FALSE

input: // outcome(item) with item = CC1CCC(NC(=O)N(CCCl)N=O)CC1 (configuration not stated)
output: FALSE

input: // outcome(item) with item = Cc1cc(O)c(C(C)C)cc1S(=O)(=O)O (tested in a mixture with another compound)
output: FALSE

input: // outcome(item) with item = COc1cc(NC(C)CCCNC2CN3CCC2CC3)c2ncccc2c1 (configuration not stated)
output: FALSE

input: // outcome(item) with item = O=C(CCCCCCCCC(=O)N/N=C\c1ccccc1O)N/N=C\c1ccccc1O
output: FALSE

input: // outcome(item) with item = COc1ccc(-c2cc(=O)[nH]c3c(OC)c4ccccc4c(OC)c23)cc1
output: FALSE

input: // outcome(item) with item = COc1ccc(-c2nc(-c3nc4ccc(OC)cc4[nH]3)c3ccccn23)cc1
output: FALSE

input: // outcome(item) with item = COc1cc(/C=C/C(=O)c2cccc(Nc3nc(Nc4ccccc4)nc(Nc4ccccc4)n3)c2)cc(OC)c1OC
output: FALSE

input: // outcome(item) with item = CCC[CH2][Sn]1([CH2]CCC)[O]C(=O)c2cccnc2[O]1
output: FALSE

input: // outcome(item) with item = COc1cc2c(cc1C)NC(=O)/C2=C/c1ccccn1
output: FALSE

input: // outcome(item) with item = CN(O)c1nc(N(C)O)nc(N2CCOCC2)n1
output: FALSE

input: // outcome(item) with item = Cc1nn2c(/C=C3\C(=O)Nc4ccc(Cl)cc43)c(C)nc2s1
output: FALSE

* * *

- Test system: NCI/ADR-RES ovarian
- EXPERIMENTAL_DETAILS: NCI tumour cell line growth inhibition, 48 h
RECORDED_METRIC: TGI

input: Requested field: TGI. Item: CN(CCCCCl)P(=O)(OCc1ccc([N+](=O)[O-])o1)OC[C@H]1O[C@@H](n2cc(F)c(=O)[nH]c2=O)C[C@@H]1O (some centres undefined)
output: 36.3 µM

input: Requested field: TGI. Item: COC(=O)c1nc(-c2ccccc2)oc1S(=O)(=O)Cc1ccccc1
output: 36.3 µM

input: Requested field: TGI. Item: CCN(CC)CCCCNc1c2ccccc2[n+](C)c2c1[nH]c1ccccc12
output: > 100 µM

input: Requested field: TGI. Item: O=C1C(Cl)C2(CC(/C=C/c3ccccc3Cl)=NN2c2cccc(S(=O)(=O)O)c2)N1c1nc2ccccc2s1 (centres undefined)
output: > 100 µM

input: Requested field: TGI. Item: CCCCCCCCCCCCCCCCCCOc1ccccc1CC(=O)OCC[N+]1(C)CCCCC1
output: 46.6 µM

input: Requested field: TGI. Item: COC(=O)[C@@H]1CN(C(C)=O)C(=O)N1
output: > 100 µM

input: Requested field: TGI. Item: COC(=O)c1ccc(C)cc1CC1Cc2cc(C)ccc2C1=O (centres undefined)
output: > 100 µM

input: Requested field: TGI. Item: COc1cc(C(=O)O[C@H](C(=O)NCCCCCNC(=O)[C@@H](OC(=O)c2cc(OC)cc3c(C)cccc23)[C@]2(C)CO2)[C@]2(C)CO2)c2cccc(C)c2c1
output: 0.584 µM

input: Requested field: TGI. Item: CN(C)CCCSc1nc2ccccc2[nH]1
output: > 100 µM
